Reported Ki values follow for various compounds
- tested.on: h-GABA-A α5β3γ2 (Homo sapiens, UniProt P18507+P31644)
- protocol.description: [3H]flumazenil competition binding assay, membranes of HEK293 cells expressing GABAA receptors
- experimental.context: displacement of [3H]-Flumazenil 0.5 nM, HEK293 cells expressing human receptors, mean of two determinations; Table 1
measured.attribute: Ki (nM)

[[record]]
compound_structure = "COc1cc(-c2cnn(Cc3c(-c4ccc(C)nc4)noc3C)c(=O)c2)c(F)cn1"
tested_on = "h-GABA-A α5β3γ2 (Homo sapiens, UniProt P18507+P31644)"
quantitative_result = 5.9

[[record]]
compound_structure = "Cc1onc(-c2ccc(F)cc2)c1Cn1ncc(N2C[C@@H](C)O[C@@H](C)C2)cc1=O"
tested_on = "h-GABA-A α5β3γ2 (Homo sapiens, UniProt P18507+P31644)"
quantitative_result = 3.8

[[record]]
compound_structure = "Cc1ccc(-c2noc(C)c2Cn2ncc(NCC3CCOCC3)cc2=O)cn1"
tested_on = "h-GABA-A α5β3γ2 (Homo sapiens, UniProt P18507+P31644)"
quantitative_result = 33.4

[[record]]
compound_structure = "Cc1ccc(-c2noc(C)c2Cn2ncc(N3CC[C@H](C(=O)NC4CC4)C3)cc2=O)cn1"
tested_on = "h-GABA-A α5β3γ2 (Homo sapiens, UniProt P18507+P31644)"
quantitative_result = 56.2

[[record]]
compound_structure = "Cc1ccc(-c2noc(C)c2Cn2ncc(N3CC4(C[C@H](O)CO4)C3)cc2=O)cn1"
tested_on = "h-GABA-A α5β3γ2 (Homo sapiens, UniProt P18507+P31644)"
quantitative_result = 17

[[record]]
compound_structure = "COC1CN(c2cnn(Cc3c(-c4ccc(C)nc4)noc3C)c(=O)c2)C1"
tested_on = "h-GABA-A α5β3γ2 (Homo sapiens, UniProt P18507+P31644)"
quantitative_result = 22.9

[[record]]
compound_structure = "Cc1ccc(-c2noc(C)c2Cn2ncc(-c3ccc4ncc(C)n4c3)cc2=O)cn1"
tested_on = "h-GABA-A α5β3γ2 (Homo sapiens, UniProt P18507+P31644)"
quantitative_result = 19.8

[[record]]
compound_structure = "Cc1ccc(-c2noc(C)c2Cn2ncc(N3CCOCC3)cc2=O)cn1"
tested_on = "h-GABA-A α5β3γ2 (Homo sapiens, UniProt P18507+P31644)"
quantitative_result = 3.2

